Source of measurements: patent US20100035814A1

// values below are reported pKd
SYSTEM TESTED: T1, soluble form of the PRL receptor (UniProt P16471 25-234, limits assumed)
T1 construct: extracellular domain; It gives no residues, tag or species; also called prolactin receptor; immobilized receptor
T1 sequence (looked up): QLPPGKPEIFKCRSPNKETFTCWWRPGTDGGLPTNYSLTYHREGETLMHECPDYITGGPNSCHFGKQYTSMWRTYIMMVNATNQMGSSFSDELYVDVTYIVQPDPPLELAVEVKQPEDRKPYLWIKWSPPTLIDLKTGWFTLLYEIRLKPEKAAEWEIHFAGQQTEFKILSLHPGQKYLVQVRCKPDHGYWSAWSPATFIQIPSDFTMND
ASSAY PROCEDURE: SPR (Biacore 3000), soluble PRL receptor amine-coupled to CM5 chip, prolactin molecule injected at 500 nM
Method: The soluble form of the PRL receptor (25 μg/ml in 10 mM sodium acetate, pH 3.0) was injected into a Biacore 3000 instrument at a flow rate of 5 μl/min and coupled to a CM5 sensor chip by amine coupling chemistry. […] Data evaluation was performed in BiaEvaluation 4.1. […] Using the assay as described in Example 8, the binding of N-terminally pegylated versions of the prolactin antagonist PRL(12-199) Q12S G129R to the prolactin receptor was determined.
pKd: −log10 of the molar value.
READOUT: pKd

• N^alpha1-(3-(20 kDa-mPEGyl)propyl)PRL S61 G129R ("PRL S61A G129R PEG20k") (ligand, N-terminal alpha-amino group (N^alpha1) alkylated with 3-(20 kDa mPEGyl)propyl by reductive amination) LPICPGGAARCQVTLRDLFDRAVVLSHYIHNLSSEMFSEFDKRYTHGRGFITKAINSCHTASLATPEDKEQAQQMNQKDFLSLIVSILRSWNEPLYHLVTEVRGMQEAPEAILSKAVEIEEQTKRLLERMELIVSQVHPETKENEIYPVWSGLPSLQMADEESRLSAYYNLLHCLRRDSHKIDNYLKLLKCRIIHNNNC = 7.15
• N^alpha,13((4-(3-(5 kDa mPEGyloxy)propionylamino)butoxy)imino)acetyl G129R-PRL(13-199) (E4) (ligand, alpha-amino group of residue 13 carries ((4-(3-(5 kDa mPEGyloxy)propionylamino)butoxy)imino)acetyl (oxime formed on the periodate-oxidised N-terminal serine of N^alpha,13-seryl G129R-PRL(13-199)), also called N-terminally pegylated PRL(12-199) Q12S G129R (5 kDa PEG)) VTLRDLFDRAVVLSHYIHNLSSEMFSEFDKRYTHGRGFITKAINSCHTSSLATPEDKEQAQQMNQKDFLSLIVSILRSWNEPLYHLVTEVRGMQEAPEAILSKAVEIEEQTKRLLERMELIVSQVHPETKENEIYPVWSGLPSLQMADEESRLSAYYNLLHCLRRDSHKIDNYLKLLKCRIIHNNNC = 7.38
• N^alpha,13((4-(2-Methyl-4-(10 kDa mPEGyloxy)butanoylamino)butoxy)imino)acetyl G129R-PRL(13-199) (E2) (ligand, alpha-amino group of residue 13 carries ((4-(2-methyl-4-(10 kDa mPEGyloxy)butanoylamino)butoxy)imino)acetyl (oxime formed on the periodate-oxidised N-terminal serine of N^alpha,13-seryl G129R-PRL(13-199)), also called N-terminally pegylated PRL(12-199) Q12S G129R (10 kDa PEG)) VTLRDLFDRAVVLSHYIHNLSSEMFSEFDKRYTHGRGFITKAINSCHTSSLATPEDKEQAQQMNQKDFLSLIVSILRSWNEPLYHLVTEVRGMQEAPEAILSKAVEIEEQTKRLLERMELIVSQVHPETKENEIYPVWSGLPSLQMADEESRLSAYYNLLHCLRRDSHKIDNYLKLLKCRIIHNNNC = 7.26
• PRL wildtype (ligand, also called wtPRL; human prolactin) LPICPGGAARCQVTLRDLFDRAVVLSHYIHNLSSEMFSEFDKRYTHGRGFITKAINSCHTSSLATPEDKEQAQQMNQKDFLSLIVSILRSWNEPLYHLVTEVRGMQEAPEAILSKAVEIEEQTKRLLEGMELIVSQVHPETKENEIYPVWSGLPSLQMADEESRLSAYYNLLHCLRRDSHKIDNYLKLLKCRIIHNNNC = 7.49
• N^alpha,13((4-(4-(20 kDa mPEGyloxy)butanoylamino)butoxy)imino)acetyl G129R-PRL(13-199) (E3) (ligand, alpha-amino group of residue 13 carries ((4-(4-(20 kDa mPEGyloxy)butanoylamino)butoxy)imino)acetyl (oxime formed on the periodate-oxidised N-terminal serine of N^alpha,13-seryl G129R-PRL(13-199)), also called N-terminally pegylated PRL(12-199) Q12S G129R (20 kDa PEG)) VTLRDLFDRAVVLSHYIHNLSSEMFSEFDKRYTHGRGFITKAINSCHTSSLATPEDKEQAQQMNQKDFLSLIVSILRSWNEPLYHLVTEVRGMQEAPEAILSKAVEIEEQTKRLLERMELIVSQVHPETKENEIYPVWSGLPSLQMADEESRLSAYYNLLHCLRRDSHKIDNYLKLLKCRIIHNNNC = 7.15
